Molecular target: ALK (Homo sapiens, UniProt Q9UM73)
Construct: host or cells: baculovirus expression system
Sequence (Q9UM73 19-1620): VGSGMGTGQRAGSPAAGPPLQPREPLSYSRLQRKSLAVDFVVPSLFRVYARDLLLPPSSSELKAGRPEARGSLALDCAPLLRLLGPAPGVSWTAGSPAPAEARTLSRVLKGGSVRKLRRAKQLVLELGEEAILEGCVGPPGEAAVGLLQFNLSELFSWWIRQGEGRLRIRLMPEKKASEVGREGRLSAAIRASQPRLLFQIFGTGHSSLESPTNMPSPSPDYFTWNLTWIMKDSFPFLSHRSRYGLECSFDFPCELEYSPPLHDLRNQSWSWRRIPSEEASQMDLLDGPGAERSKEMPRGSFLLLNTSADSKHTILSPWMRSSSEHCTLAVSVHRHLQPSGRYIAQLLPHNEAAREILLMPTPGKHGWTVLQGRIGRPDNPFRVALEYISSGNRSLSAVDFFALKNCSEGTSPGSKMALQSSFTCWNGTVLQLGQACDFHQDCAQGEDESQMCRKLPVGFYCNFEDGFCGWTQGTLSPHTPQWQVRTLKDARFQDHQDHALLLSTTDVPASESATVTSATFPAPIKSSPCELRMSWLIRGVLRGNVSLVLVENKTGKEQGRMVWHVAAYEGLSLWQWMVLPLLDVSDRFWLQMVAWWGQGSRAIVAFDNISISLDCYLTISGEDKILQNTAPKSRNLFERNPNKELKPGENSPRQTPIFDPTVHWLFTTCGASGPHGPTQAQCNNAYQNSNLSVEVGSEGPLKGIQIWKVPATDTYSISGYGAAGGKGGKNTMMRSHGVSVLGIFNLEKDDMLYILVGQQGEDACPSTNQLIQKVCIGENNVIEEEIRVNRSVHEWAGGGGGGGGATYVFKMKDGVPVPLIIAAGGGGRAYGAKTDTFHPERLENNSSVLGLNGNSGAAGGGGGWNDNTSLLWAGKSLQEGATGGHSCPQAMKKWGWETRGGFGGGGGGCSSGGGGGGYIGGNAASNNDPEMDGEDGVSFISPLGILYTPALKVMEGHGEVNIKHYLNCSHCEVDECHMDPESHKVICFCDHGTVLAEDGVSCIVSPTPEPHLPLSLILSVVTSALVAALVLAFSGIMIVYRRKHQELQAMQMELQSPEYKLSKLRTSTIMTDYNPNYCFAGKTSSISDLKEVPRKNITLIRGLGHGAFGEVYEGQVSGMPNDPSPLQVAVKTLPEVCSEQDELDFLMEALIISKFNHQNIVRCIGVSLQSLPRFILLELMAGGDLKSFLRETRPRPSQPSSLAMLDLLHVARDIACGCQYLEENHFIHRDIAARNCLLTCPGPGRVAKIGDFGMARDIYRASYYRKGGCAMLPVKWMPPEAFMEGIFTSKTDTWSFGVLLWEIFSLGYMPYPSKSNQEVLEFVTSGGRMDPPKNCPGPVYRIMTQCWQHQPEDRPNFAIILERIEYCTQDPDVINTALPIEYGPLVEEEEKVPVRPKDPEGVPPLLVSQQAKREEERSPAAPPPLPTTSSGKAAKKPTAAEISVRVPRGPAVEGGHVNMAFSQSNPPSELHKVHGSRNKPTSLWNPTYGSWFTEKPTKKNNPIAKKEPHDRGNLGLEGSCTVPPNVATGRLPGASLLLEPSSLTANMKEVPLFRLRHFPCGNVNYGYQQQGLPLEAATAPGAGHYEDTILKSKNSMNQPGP
Experiment: ALK Kinase Assay (ELISA/TRF, PLC-γ substrate)
Format: biochemical
Details: ALK Kinase Inhibition; read-out: ALK Potency
For each record, write down the corresponding IC50.

Sample CN(C)Cc1ccc(-c2ccc3cnc(Nc4ccc(C5CCN(CC(N)=O)CC5)cc4)nn23)cc1 — what was its IC50?
1 to 10 µM

Sample c1cc2cnc(Nc3ccc(N4CCOCC4)cc3)nn2c1 — what was its IC50?
> 10 µM

Sample COc1cc(N2CCC(C(=O)N3CCN(C)CC3)CC2)ccc1Nc1ncc2ccc(-c3ccccc3N(C)S(C)(=O)=O)n2n1 — what was its IC50?
< 0.1 µM

Sample COc1ccc(Cl)cc1-c1ccc2cnc(Nc3ccc(C(=O)N4CCN(C)CC4)cc3)nn12 — what was its IC50?
0.1 to 1 µM

Sample COc1cc(N2CCN(C)CC2)ccc1Nc1ncc2ccc(-c3ccc(C#N)nc3)n2n1 — what was its IC50?
0.1 to 1 µM

Sample FC1(F)Oc2cccc(-c3ccc4cnc(Nc5ccc6c(c5)CCC(N5CCOCC5)CC6)nn34)c2O1 (centres unmarked) — what was its IC50?
1 to 10 µM

Sample CN1CCN(C)C(c2ccc(Nc3ncc4ccc(-c5cccc(S(=O)(=O)NC(C)(C)C)c5)n4n3)cc2)C1 (centres unmarked) — what was its IC50?
0.1 to 1 µM

Sample COc1ccccc1-c1ccc2cnc(Nc3ccc(N4CCCC4)cc3)nn12 — what was its IC50?
0.1 to 1 µM

---

Target: ALK (Homo sapiens)
Construct: host or cells: baculovirus expression system
Experiment: ALK Kinase Assay (ELISA/TRF, PLC-γ substrate)
Format: biochemical
Conditions: ALK kinase inhibition, 1 μM ATP; read-out: ALK Potency
For each record, write down the corresponding IC50.

Sample Cc1nc2cc(Nc3ncc4ccc(-c5cccc(S(=O)(=O)NC(C)(C)C)c5)n4n3)ccc2s1 [Example 574] — what was its IC50?
1000 to 10000 nM

Sample COc1cc(C2CCN(CC(N)=O)CC2)ccc1Nc1ncc2ccc(-c3cn(C)nc3N(C)S(C)(=O)=O)n2n1 [Example 1256] — what was its IC50?
< 100 nM

Sample CCS(=O)(=O)c1cccc(-c2ccc3cnc(Nc4ccc5nc[nH]c5c4)nn23)c1 [Example 1311] — what was its IC50?
1000 to 10000 nM

Sample CN1CCCC1COc1cc(Nc2ncc3ccc(-c4cccc(S(C)(=O)=O)c4)n3n2)ccc1Cl (stereo not shown) [Example 1013] — what was its IC50?
1000 to 10000 nM

Sample COc1cc(C2CCN(C3COC3)CC2)ccc1Nc1ncc2ccc(-c3ccccc3OC)n2n1 [Example 827] — what was its IC50?
< 100 nM

Sample Cn1cc(-c2ccc3cnc(Nc4cccc(-n5cccn5)c4)nn23)cn1 [Example 964] — what was its IC50?
1000 to 10000 nM

Sample COc1cc(C2CCN(Cc3ncc[nH]3)CC2)ccc1Nc1ncc2ccc(-c3ccccc3OC)n2n1 [Example 868] — what was its IC50?
< 100 nM

Sample COc1cc(CN2CCN(C)CC2)ccc1Nc1ncc2ccc(-c3ccccc3N(C)S(C)(=O)=O)n2n1 [Example 1251] — what was its IC50?
< 100 nM

Sample COc1cc(N2CCC(N3CCNCC3)CC2)ccc1Nc1ncc2ccc(-c3ccccc3OC)n2n1 [Example 537] — what was its IC50?
< 100 nM

Sample CC(=O)N1CCc2ccc(Nc3ncc4ccc(-c5cccc(S(=O)(=O)N6CC[C@H](O)C6)c5)n4n3)cc21 [Example 885] — what was its IC50?
1000 to 10000 nM

Sample COc1cc(C2CCN(C(=O)C(C)(C)N)CC2)ccc1Nc1ncc2ccc(-c3ccccc3OC)n2n1 [Example 821] — what was its IC50?
< 100 nM

Sample COc1cc(N2CCN(C[C@H](C)O)CC2)ccc1Nc1ncc2ccc(-c3cc(Cl)ccc3OC)n2n1 [Example 755] — what was its IC50?
< 100 nM

Sample COc1cc(C2CCN(C[C@@H](C)O)CC2)ccc1Nc1ncc2ccc(-c3ccccc3N(C)S(C)(=O)=O)n2n1 [Example 788] — what was its IC50?
< 100 nM

Sample COc1ccccc1-c1ccc2cnc(Nc3ccc4cn(CCN5CCOCC5)nc4c3)nn12 [Example 1350] — what was its IC50?
1000 to 10000 nM

Sample COc1cc(N2CCC(N3CCN(C(=O)OCc4ccccc4)CC3)CC2)ccc1Nc1ncc2ccc(-c3ccccc3OC)n2n1 [Example 531] — what was its IC50?
< 100 nM

Sample COc1ccc(CN2CCOCC2)cc1Nc1ncc2ccc(-c3ccccc3N(C)S(C)(=O)=O)n2n1 [Example 498] — what was its IC50?
1000 to 10000 nM

Sample COc1ccccc1-c1cc2cnc(Nc3ccc(N4CCN(C)CC4)cc3)nn2c1 [Example 1156] — what was its IC50?
1000 to 10000 nM

Sample COc1cc(Nc2ncc3ccc(-c4cccc(S(=O)(=O)NC(C)(C)C)c4)n3n2)ccc1C1CCN(CC(N)=O)CC1 [Example 924] — what was its IC50?
< 100 nM

Sample CN(c1ccccc1-c1ccc2cnc(Nc3ccc4cn(CCN5CCOCC5)nc4c3)nn12)S(C)(=O)=O [Example 1342] — what was its IC50?
100 to 1000 nM

Sample COCCN1CC[C@](O)(c2ccc(Nc3ncc4ccc(-c5ccccc5N(C)S(C)(=O)=O)n4n3)c(OC)c2)[C@@H](O)C1 (racemic) [Example 846] — what was its IC50?
< 100 nM

Sample COc1ccccc1-c1ccc2cnc(Nc3ccc(=O)[nH]c3)nn12 [Example 591] — what was its IC50?
1000 to 10000 nM

Sample N#CCCn1cc(-c2ccc3cnc(Nc4ccc(C5CCN(CC(N)=O)CC5)cc4)nn23)cn1 [Example 933] — what was its IC50?
100 to 1000 nM

Sample COc1cc(C2CCN(CC(C)(C)O)CC2)ccc1Nc1ncc2ccc(-c3ccccc3OC)n2n1 [Example 865] — what was its IC50?
< 100 nM

Sample COc1cc2c(cc1Nc1ncc3ccc(-c4ccccc4OC)n3n1)CN(C1CCN(C)CC1)C2 [Example 852] — what was its IC50?
< 100 nM

Sample CN(c1ccccc1-c1ccc2cnc(OC3CCN(c4ccc(N)cc4)CC3)nn12)S(C)(=O)=O [Example 634] — what was its IC50?
1000 to 10000 nM

Sample Cn1ncc2ccc(Nc3ncc4ccc(-c5cccc(S(=O)(=O)NC(C)(C)C)c5)n4n3)cc21 [Example 1317] — what was its IC50?
1000 to 10000 nM

Sample CC(C)(C)NS(=O)(=O)c1cccc(-c2ccc3cnc(Nc4ccc5nc[nH]c5c4)nn23)c1 [Example 1299] — what was its IC50?
100 to 1000 nM

Sample CN1CCN(c2ccc(Nc3ncc4ccc(-c5cccc(CCC#N)c5)n4n3)cc2)CC1 [Example 1142] — what was its IC50?
< 100 nM

Sample CN1CCN(c2cccc(Nc3ncc4ccc(-c5cnn(CC(N)=O)c5)n4n3)c2)CC1 [Example 978] — what was its IC50?
100 to 1000 nM

Sample CS(=O)(=O)CCNCc1cccc(-c2ccc3cnc(Nc4ccc(N5CCOCC5)cc4)nn23)c1 [Example 1209] — what was its IC50?
100 to 1000 nM

Sample CN1CCN(c2cccc(Nc3ncc4ccc(-c5cccc(CCC#N)c5)n4n3)c2)CC1 [Example 1153] — what was its IC50?
< 100 nM

Data credit: patent US8471005B2
